B1: r16_88_TrROS_Hall (parent)
chain: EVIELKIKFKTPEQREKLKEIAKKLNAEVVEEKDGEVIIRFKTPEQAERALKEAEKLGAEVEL

variants of: B1; assay: folding stability dG (cDNA display proteolysis); higher = more stable; details: PBS, room temperature
Rule: condition met for folding stability dG not less than 4 kcal/mol, condition not met for anything less.

[
  {
    "mutation-spec": "K17M",
    "group": "condition met"
  },
  {
    "mutation-spec": "I7H",
    "group": "condition not met"
  },
  {
    "mutation-spec": "E1D",
    "group": "condition met"
  },
  {
    "mutation-spec": "F41M",
    "group": "condition met"
  },
  {
    "mutation-spec": "I21K",
    "group": "condition not met"
  },
  {
    "mutation-spec": "E28A",
    "group": "condition met"
  },
  {
    "mutation-spec": "A59K",
    "group": "condition met"
  },
  {
    "mutation-spec": "K56R",
    "group": "condition met"
  },
  {
    "mutation-spec": "A27M",
    "group": "condition met"
  },
  {
    "mutation-spec": "I21S",
    "group": "condition met"
  }
]
